Just for reference, the RNAGym collection of RNA variant scans (doi:10.1126/science.aae0568) is where these values come from.

B1: tRNA (parent)
chain: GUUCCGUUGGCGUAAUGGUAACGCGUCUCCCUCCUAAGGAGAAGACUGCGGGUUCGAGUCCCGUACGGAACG

# Variants of: B1
# method-description: yeast fitness relative to wild type (ratio to wild type); higher = fitter; tRNA-Arg(CCU), competitive growth, 37 C, YPD
Fewer inactive variants are shown than the library holds.
The label depends only on yeast fitness: met if it is at least 0.6, not met if it is smaller.

Example entries and their recorded answers appear below.
| monomer-sequence | class-name |
| --- | --- |
| GUUCCGUCGGCGUAAUGGUAACGCGUCUCCCUCCUAAGGAGAAGACUGCGGGUUUGAAUCCCGUACGGAACG [U8C C55U G58A] | not met |
| GUUCCGUUGCCGUAAUGGUAAAGGGUCUCCCUCCUAAGGAGAAGACUGCGGGAUCGAGUCCUGUACGGAACG [G10C C22A C24G U53A C62U] | not met |
| GUUCCGUUGGCGUAUUGGUAACGCGUCUCCCUCCUAAGCAGAAGACCGCGGGUUCGAGUCCCGUACGGAACG [A15U G39C U47C] | not met |
| GUUCCAUUGGCGUGAUGGUAACGAGUCUCCCUCCUGAGGAGAAGUCUGCGGGUUCGAGUCCCGUACGGAACG [G6A A14G C24A A36G A45U] | not met |
| GAUUCGUGGGCGUAAUGGUAAGGCGUCUCCCUCCUAAGGAGAAGACAGCGGGUUCGAGUCCCGUACGGACCG [U2A C4U U8G C22G U47A A70C] | not met |
| GUUCCGUUGGCGUAAUGGUAACGCGUCUCCCUCCUAUGGAGAAGACUGCGGGUUGGAGUCCCGUACGCAACG [A37U C55G G68C] | not met |
| GUUCCGUUGGCGUAAUGGUAACGCGUCCCCCCCCUAAGGAGAAGAGUGCGGGUUCGAGUCCCGUACGGAACG [U28C U32C C46G] | met |
| GUUCCGUUGGCGUAAUGAUAACACGUCUCCCUACUAAGGAGAAGACUGCGGGUUCGAGUCCCGCACGGAACG [G18A G23A C33A U64C] | met |
| GUUCCGGUGGCGUAAUGGUAACGCGUCUCCCUCCUAAGGAGAAGACUGCGGGUUCGAGUCCCGUGUGGAACG [U7G A65G C66U] | met |
| GUUCCGUUGGCGUAAUGGUAACGCGUCUCCCUCCUAAGGAGAAGACUGCGGGUUCGCGUCCCGUCCGGACCG [A57C A65C A70C] | not met |

Textbook exercise: given the entry GUUCCGUUGGCGUAAUGGUAACGCGUCUCCCUCCUAAGGAGAAGACUGCGGCUUCGAGUCCCGUACGGAGCG [G52C A70G] , state whether its yeast fitness is greater than or equal to 0.6.
met

Try GUUCCGUUCGCGUAAUGGUGACGCGUCUCCCUCCCGAGGAGAAGACUGCGGGUUCGAGUCCCGUACGGAACG [G9C A20G U35C A36G] next.
not met

Try GUUCCGUUGGCGUAAGGGUAACGCGUCUCCCUCCUCAGCAGAAGACUGCGGGUUCGAGUCCCAUUCGGAACG [U16G A36C G39C G63A A65U] next.
not met
